Please go through the items and note down their yeast fitness.
B1: tRNA (parent)
chain: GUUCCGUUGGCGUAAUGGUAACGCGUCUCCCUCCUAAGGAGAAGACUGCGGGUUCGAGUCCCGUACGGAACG

Variants of: B1
experiment: yeast fitness relative to wild type (ratio to wild type); higher = fitter; tRNA-Arg(CCU), competitive growth, 37 C, YPD
Fewer inactive variants are shown than the library holds.

Some solved entries appear below for comparison.
Reported yeast fitness of G9C C11A A40C A70U : 0.704

Reported yeast fitness of C5G C11A A40C U59C : ≤ 0.5

Reported yeast fitness of C11U A57U C60G G68C : ≤ 0.5

Reported yeast fitness of G17C G38C A43C A69U : ≤ 0.5

Reported yeast fitness of G6A U16A G63A : 0.569

Reported yeast fitness of C4A C27G A42G U53A : ≤ 0.5

Reported yeast fitness of C4G C5U C30U G39A : ≤ 0.5

Reported yeast fitness of U35A A37G A43C U54C : ≤ 0.5

Reported yeast fitness of C22G C27G U59C C61U C62U G68U : ≤ 0.5

Reported yeast fitness of C4A U16A A37G A69U : ≤ 0.5

State the recorded yeast fitness for every item in the following list.
1. G18A U19C
2. U13A A45G
3. G6C U16G C27U
4. C22G C29G C46U G63A A70U
5. U28C G38C
6. C30G A40U C46U A69G
7. A40U U59C G68A
8. G6A C46G G51A

1. 0.79
2. 0.92
3. ≤ 0.5
4. ≤ 0.5
5. 0.579
6. ≤ 0.5
7. 0.569
8. 0.637

These measurements were taken from the RNAGym collection of RNA variant scans (doi:10.1126/science.aae0568).
